Study the reported pIC50 values for Collagenase 3 (Homo sapiens, UniProt P45452) given below; they originate from different publications.
pIC50: −log10 of the molar value.
Would you mind sorting the entries by pIC50 according to these classes? lower band = under 7, central band = from 7 up to 8, upper band = 8 and over

Consider the following illustrative entries.
CNC(=O)[C@@H](NC(=O)c1ccc(-c2cccc(CNC(=O)c3cccc(Br)n3)c2)o1)C1CC1 :: central band
Cc1noc(-c2cc3cc(-c4nc(C(=O)NCC5COCCO5)[nH]c4C)ccc3[nH]2)n1 (centres unmarked) :: upper band
CNC(=O)[C@@H](NC(=O)c1ccc(-c2cccc(CNC(=O)c3cccnc3)c2)o1)C(C)C :: lower band
CCC(CC)COc1ccc(S(=O)(=O)C2(C(=O)NO)CCN(Cc3ccccc3)CC2)cc1 :: upper band
COc1ccc(-c2ccc(S(=O)(=O)N(OC(C)C)[C@H](CCN3C(=O)c4ccccc4C3=O)C(=O)NO)cc2)cc1 :: upper band
CNC(=O)[C@@H](NC(=O)c1ccc(-c2ccc(OCc3[nH]cnc3C)cc2)o1)C1CCOCC1 :: central band

Please report the category associated with `CNC(=O)[C@@H](NC(=O)c1ccc(-c2ccc(C)cc2)o1)C1CCCCC1` , nothing else. lower band

Which pIC50 category applies to `CCCN([C@@H](C(=O)NO)C(C)(C)C)S(=O)(=O)c1cccc(C(=O)NC)c1` here? lower band

Hey, which category is `Cc1noc(-c2cc3cc(-c4nc(C(=O)NC[C@@H]5CCCO5)[nH]c4C)ccc3[nH]2)n1` in, do you know? upper band

* * *

Let's look at some pIC50 data for Collagenase 3 (Homo sapiens) that I collected from the literature.
Answers are plain numbers, as −log10 of the molar value.

These recorded examples may help you get a feel for the data.
CNC(=O)[C@@H](NC(=O)c1ccc(-c2cccc(CNC(=O)c3nccn3C)c2)o1)C1CCCCC1 :: 6.50
CCCCCCCCCCCCN1CC(C(=O)O)N(S(=O)(=O)c2ccc(-c3ccc(Br)cc3)cc2)CC1=O (stereo not shown) :: 5.63
CC(C)CC(C(=O)NO)N1C(=O)CSC1c1ccc(-c2ccc(Cl)cc2)o1 (stereo not shown) :: 6.87
CNC(=O)[C@@H](NC(=O)c1ccc(-c2cccc(CNC(=O)c3cc(C)no3)c2)o1)C(C)C :: 6.55

Lab note: each compound below needs its pIC50 filled in.
1. CNC(=O)[C@@H](NC(=O)c1ccc(-c2cccc(CNC(=O)c3ccn(C(F)F)n3)c2)o1)C(C)C
2. Cc1cc(COc2ccc(S(=O)(=O)N(C)[C@@H]3CCC[C@@H]3C(=O)NO)cc2)c2ccccc2n1 (relative stereo)
3. CO[C@H](C)[C@@H](CS(=O)(=O)Cc1cnc2ccccc2c1)N(O)C=O
4. Cc1noc(-c2cc3cc(-c4nc(C(=O)NCc5ccccc5)[nH]c4C)ccc3[nH]2)n1

1. 7.85
2. 4.86
3. 5.59
4. 8.70

I would be grateful if you could provide pIC50 for each of the following entries.
1. CNC(=O)[C@@H](NC(=O)c1ccc(-c2ccc(NC(=O)c3cccc(C)n3)cc2)o1)C(C)C
2. CC#CCOc1ccc(S(=O)(=O)CC2(C(=O)NO)CCN(C(=O)C(C)(CO)CO)CC2)cc1
3. O=C(O)[C@H]1[C@H](Cn2nnc3ccc(C(F)(F)F)cc3c2=O)CC[C@@H]1C(=O)c1ccc(SCc2ccc(Cl)c(Cl)c2)cc1 (racemic)

7.85
5.79
5.57

* * *

Below, log10 IC50 values reported for Collagenase 3 (Homo sapiens, UniProt P45452) across several publications.
Answers are given as log10 of IC50 in nM.

CCCCOc1ccc(S(=O)(=O)C2(C(=O)NO)CCN(Cc3ccncc3)CC2)cc1 :: 0.15

// for each compound below, give its log10 IC50
1. CNC(=O)[C@@H](NC(=O)c1ccc(-c2ccc(Cl)cc2)o1)C1CCNCC1
2. CC#CCOc1ccc(S(=O)(=O)C2(C(=O)NO)CCN(C(=O)OC(C)(C)C)CC2)cc1
3. CNC(=O)[C@@H](NC(=O)c1ccc(-c2cccc(CNC(=O)[C@@H]3CCCN3C)c2)o1)C(C)C
4. Cc1ccccc1COc1ccc(S(=O)(=O)N2CCN[C@@H](C)[C@@H]2C(=O)NO)cc1
5. Cc1noc(-c2cc3cc(-c4nc(C(=O)N5CCCC5)[nH]c4C)ccc3[nH]2)n1
6. CNC(=O)[C@@H](NC(=O)c1ccc(-c2cccc(CNC(=O)c3cccc(N(C)C)c3)c2)o1)C(C)C
7. Cc1noc(-c2cc3cc(-c4nc(C(=O)NCc5nnc[nH]5)[nH]c4C)ccc3[nH]2)n1
8. Cc1noc(-c2cc3cc(-c4nc(C(N)=O)[nH]c4C)ccc3[nH]2)n1

2.63
2.45
2.58
1.26
2.05
2.33
0.78
1.00

Value sought for every listed compound: log10 IC50.
1. CC(C)[C@H](NS(=O)(=O)c1ccc2sc3ccccc3c2c1)C(=O)O
2. CNC(=O)[C@@H](NC(=O)c1ccc(-c2ccc(NC(=O)c3cnn(C)c3)cc2)o1)C1CCCCC1
3. CC(C)ON([C@H](CCNS(C)(=O)=O)C(=O)NO)S(=O)(=O)c1ccc(-c2ccccc2)cc1
4. CNC(=O)[C@@H](NC(=O)c1ccc(-c2cccc(CNC(=O)c3cc4ccccc4o3)c2)o1)C1CCCCC1

1. 3.41
2. 2.26
3. 0.34
4. 1.04

* * *

Several publications report IC50 on Collagenase 3 (Homo sapiens, UniProt P45452); those values are gathered here.

Check out these entries, answers already filled in.
Cc1noc(-c2cc3cc(-c4nc(C(=O)NCC5(O)CCOCC5)[nH]c4C)ccc3[nH]2)n1 :: 6 nM
COc1cccc(S(=O)(=O)N(CCO)[C@@H](C(=O)NO)C(C)(C)C)c1 :: 30 nM
O=C(O)[C@H]1[C@H](Cn2nnc3ccc(C(F)(F)F)cc3c2=O)CC[C@@H]1C(=O)c1ccc(OCCC2CCOCC2)cc1 (stereo in doubt) :: 230 nM
CC(C)CC(C(=O)NO)N1C(=O)CSC1c1ccc(-c2cc(C(F)(F)F)nn2C)s1 (stereo not drawn) :: 62 nM
CC#CCOc1ccc(S(=O)(=O)CC2(C(=O)NO)CCN(C(=O)c3cccnc3)CC2)cc1 :: 1730 nM
CNC(=O)[C@@H](NC(=O)c1ccc(-c2ccc(-c3cc(F)cc(F)c3)cn2)o1)C(C)C :: 370 nM
O=C1COc2ccc(CNC(=O)c3cnc4ccccc4n3)cc2N1 :: < 100 nM
CC(C)(C)c1ccc2c(c1)sc1nc(C(=O)NCc3ccc4c(c3)NC(=O)CO4)[nH]c(=O)c12 :: 100 to 20000 nM

Record IC50 for all entries; do not skip any.
1. CNC(=O)[C@@H](NC(=O)c1ccc(-c2ccc(-c3ccc4cc[nH]c4c3)cn2)o1)C(C)C
2. Nc1c(N2CCc3ccc(CNC(=O)c4nc5scc(-c6cnccn6)c5c(=O)[nH]4)cc3C2)c(=O)c1=O
3. CNC(=O)[C@@H](NC(=O)c1ccc(-c2cccc(CNC(=O)c3cccc(C)c3)c2)o1)C(C)C
4. O=C(NCc1ccc2c(c1)OCCO2)c1nc2sc3c(c2c(=O)[nH]1)CCC3
5. CNC(=O)[C@@H](NC(=O)c1ccc(-c2ccc3nc(Cc4ccncc4)[nH]c3c2)o1)C1CCCCC1
6. COCCOC(=O)N1CCN(S(=O)(=O)c2ccc(Oc3ccc4c(c3)CCCC4)nc2)[C@@H](C(=O)NO)C1

91 nM
< 100 nM
132 nM
100 to 20000 nM
34 nM
< 50 nM

* * *

Multiple publications report pIC50 for Collagenase 3 (Homo sapiens, UniProt P45452); what follows is a combined list.
One number for each entry, as −log10 of the molar value.

Past entries and their recorded results:
O=C(O)[C@@H]1[C@@H](Cn2nnc3ccc(C(F)(F)F)cc3c2=O)CC[C@H]1C(=O)c1ccc(OCCC2CCOCC2)cc1 (single isomer, unassigned) :: 6.33
Cc1cc(-c2cc3cc(-c4cc(C(=O)NCc5ccc(C(=O)O)cc5)nn4C)ccc3[nH]2)cc(F)n1 :: 7.28
O=C(O)[C@H]1[C@H](Cn2nnc3ccccc3c2=O)CC[C@@H]1C(=O)c1ccc(OCc2cccc(Cl)c2)cc1 (racemic) :: 6.40
CNC(=O)[C@@H](NC(=O)c1ccc(-c2ccc(OCc3cc4ccccc4o3)cn2)o1)C1CCCCC1 :: 8.22

I'm hoping you can list pIC50 for every molecule here, please.
1. CNC(=O)[C@@H](NC(=O)c1ccc(-c2cccc(CNC(=O)NC(C)C)c2)o1)C1CCCCC1
2. CCC(C)C(C(=O)NO)N1C(=O)CSC1c1ccc(SC)cc1 (centres unmarked)

6.69
7.00

Quick batch: pIC50 for everything below.
1. CNC(=O)[C@@H](NC(=O)c1ccc(-c2cccc(CNC(=O)c3cccc(OC)c3)c2)o1)C(C)C
2. CC#CCOc1ccc(S(=O)(=O)C2(C(=O)NO)CCN(C(=O)OCC)CC2)cc1
3. CC#CCOc1ccc(S(=O)(=O)C2(C(=O)NO)CCN(Cc3ccc(OCCN4CCCCC4)cc3)CC2)cc1

[6.79, 6.30, 7.66]

Working through the 2 molecules below one at a time, give pIC50 for each.
1. Cc1noc(-c2cc3cc(-c4nc(C(=O)NC(C)c5cccs5)[nH]c4C)ccc3[nH]2)n1 (centres unmarked)
2. O=C(CN1C(=O)/C(=C/c2ccc(-c3ccc(Br)cc3)o2)Sc2ccccc21)NO

7.82
4.54
